Exercise: state measured inhibition for each of the compounds provided.
# target-of-assay: Muscarinic acetylcholine receptor M4 (Homo sapiens)
# test-summary: human M4 muscarinic receptor antagonists, primary screen, CHO cells, Fluo-8 calcium fluorescence (AID 624125);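 further: 0% = acetylcholine EC80 with DMSO and 100% = DMSO without agonist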
# condition-notes: CHO-hM4 cells, ACh EC80, Fluo-8 calcium fluorescence; at 3 µM; active compounds read high
Hit rate of the full screen: of about 360,000 compounds, about 2,600 (0.72%) were called active. The sample as a whole holds a higher share of actives than the screen did.

Q: Value lookup for inhibition; key = CCOC(=O)C1=CC[C@@H](c2ccccc2)N(S(=O)(=O)c2ccc(C)cc2)[C@H]1c1ccc(CC)cc1
A: -16.5% (inactive)

Q: Value lookup for inhibition; key = CC1(C)Cc2c(sc3nc4n(c(=N)c23)CCCCC4)CO1
A: 3.83% (inactive)

Q: Value lookup for inhibition; key = O=C(NCc1ccccc1)[C@H]1C[C@@H]1[C@H](NP(=O)(c1ccccc1)c1ccccc1)c1ccccc1
A: -6.36% (inactive)

Q: Value lookup for inhibition; key = O=C(/C=C(O)/C=C/c1ccc(O)cc1)/C=C/c1ccc(O)cc1
A: 41.4% (active)

Q: Value lookup for inhibition; key = CC(C)(C)C(=O)COC(=O)c1cc(S(=O)(=O)N2CCCCC2)ccc1N1CCOCC1
A: -6.6% (inactive)

Q: Value lookup for inhibition; key = COC(=O)[C@]12CCCCC=C1N(Cc1ccccc1)C(=O)[C@H](CC(=O)NCc1ccc(C)o1)C2
A: -11.9% (inactive)

Q: Value lookup for inhibition; key = Fc1cccc(Cc2c(-c3ccc(Cl)cc3)nc3ccc(Cl)cn23)c1
A: -24.1% (inactive)

Q: Value lookup for inhibition; key = CCCCC[C@@H]1C=C(C(=O)OCC)[C@H](c2ccccc2)N1S(=O)(=O)c1ccc(C)cc1
A: -11.2% (inactive)

Q: Value lookup for inhibition; key = COc1ccc(COC(=O)c2n[nH]c3ccccc23)cc1F
A: 3.64% (inactive)

Q: Value lookup for inhibition; key = O=C(CSc1ccc(-c2ccc(-n3cccn3)cc2)nn1)Nc1ccc([N+](=O)[O-])cc1
A: 101% (active)

Q: Value lookup for inhibition; key = CCOC(=O)C1C(C)C(C(C)(C)C)N(S(=O)(=O)c2ccc(C)cc2)C1c1ccccc1 (stereo not given)
A: 37.7% (active)

Q: Value lookup for inhibition; key = COc1ccc(-c2nc(N)sc2C2(O)C(=O)Nc3c(Br)cc(F)cc32)cc1OC (stereo not given)
A: -0.95% (inactive)

Q: Value lookup for inhibition; key = CC(C)(C)C(=O)/C(C#N)=C/c1ccc(O)cc1
A: 3.63% (inactive)

Q: Value lookup for inhibition; key = CC(=O)N[C@@H](C)C(=O)N1CCC(n2nccc2NC(=O)CCCc2ccccc2)CC1
A: -1.73% (inactive)

Q: Value lookup for inhibition; key = CCC(Oc1ccccc1)C(=O)NCc1cccnc1 (stereo not given)
A: -2.11% (inactive)

Q: Value lookup for inhibition; key = N=c1c2c3c(sc2ncn1CCCN1CCOCC1)CCCCC3
A: 10.8% (inactive)

Q: Value lookup for inhibition; key = O=C(/C=C/[C@H]1O[C@@H](n2ccc(=O)[nH]c2=O)[C@H](O)[C@@H]1O)NCc1ccccn1
A: -0.74% (inactive)

Q: Value lookup for inhibition; key = CC1(C)C2CC[C@]3(C)C(CC=C4[C@@H]5C[C@@](C)(CO)CC[C@]5(C(=O)O)CC[C@]43C)[C@@]2(C)CC[C@@H]1O (stereo not given in full)
A: 45.8% (active)

Q: Value lookup for inhibition; key = COC(CNC(=O)c1ccc2c(c1)ncn2-c1cc(C)cc(C)c1)OC
A: -0.94% (inactive)

Q: Value lookup for inhibition; key = CSc1ccccc1NC(=O)c1ccc2c(c1)CCN2S(C)(=O)=O
A: -5.17% (inactive)
